# STUDY SYSTEM: recombinant human NAMPT (Homo sapiens)
# Construct: His tag (N); made in house; host or cells: E. coli BL21-CodonPlus (DE3)-RIL, pET21a+ vector
# Sequence (P43490 whole entry): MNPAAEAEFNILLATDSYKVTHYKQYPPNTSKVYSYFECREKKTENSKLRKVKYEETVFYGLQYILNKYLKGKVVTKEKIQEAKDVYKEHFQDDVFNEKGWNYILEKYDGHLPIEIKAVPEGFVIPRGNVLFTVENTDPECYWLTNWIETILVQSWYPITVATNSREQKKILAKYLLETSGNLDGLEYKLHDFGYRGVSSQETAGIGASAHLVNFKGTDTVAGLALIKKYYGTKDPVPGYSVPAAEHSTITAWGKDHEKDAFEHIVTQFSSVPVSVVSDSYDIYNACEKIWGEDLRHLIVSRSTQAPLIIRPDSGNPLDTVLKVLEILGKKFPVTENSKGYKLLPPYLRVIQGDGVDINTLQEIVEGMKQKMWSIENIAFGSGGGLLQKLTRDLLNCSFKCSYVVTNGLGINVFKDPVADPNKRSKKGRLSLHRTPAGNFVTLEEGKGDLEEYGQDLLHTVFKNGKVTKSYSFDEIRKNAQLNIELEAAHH
# ASSAY OVERVIEW: HTS / fixed-concentration NAMPT activity screen (fluorometric)
# Assay type: biochemical
# APPLIED CONDITIONS: 20 μM compound; analogues of the 46 non-fluorescent inhibitors
READOUT: NAMPT inhibition activity at 20 μM

> print(dat)
                                 smiles.str                             readout  reported.value
1  O=C(NCc1ccccc1Cl)c1ccc(Cn2c(=O)c3cccn3c3cccnc32)cc1  NAMPT inhibition activity at 20 μM             Yes

Where these numbers come from: paper PMC4521150
